The entries below are paired with their reported viability, T/C.
System: 843782-103-R-J1-PDC complex spheroid viability;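 note: viability read after seven days of compound exposure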
experimental-protocol: Anticancer human tumor 843782-103-R-J1-PDC patient-derived lung adenocarcinoma cell line growth inhibition [RAS]
condition-details: second compound 0.00949 µM; first compound 0.1 µM; hits give low values
Supply the numeric figure in %, leaving out any unit text.

compound	viability, T/C / %
Cc1nc(N2CCC3(CC2)COC(C)C3N)c(CO)nc1Sc1ccnc(N)c1Cl (stereo not given) + CCn1c(-c2cc(N3CCN(C)CC3)cnc2C(C)OC)c2c3cc(ccc31)-c1csc(n1)CC(NC(=O)C1CC1C)C(=O)N1CCCC(N1)C(=O)OCC(C)(C)C2	25.6
CC(C)NCC(C(=O)N1CCN(c2ncnc3c2C(C)CC3O)CC1)c1ccc(Cl)cc1 (stereo not given) + CCn1c(-c2cc(N3CCN(C)CC3)cnc2C(C)OC)c2c3cc(ccc31)-c1csc(n1)CC(NC(=O)C1CC1C)C(=O)N1CCCC(N1)C(=O)OCC(C)(C)C2	38
CC(=O)OC12COC1CC(O)C1(C)C(=O)C(O)C3=C(C)C(OC(=O)C(O)C(NC(=O)OC(C)(C)C)c4ccccc4)CC(O)(C(OC(=O)c4ccccc4)C21)C3(C)C (stereo not given) + CCn1c(-c2cccnc2C(C)OC)c2c3cc(ccc31)N1CCOC(CC(NC(=O)C(C(C)C)N(C)C(=O)C3(F)CCN(C(=O)C#CC(C)(C)N(C)C)CC3)C(=O)N3CCCC(N3)C(=O)OCC(C)(C)C2)C1	8.65
C[C@@H](NC(=O)c1ncnc(N)c1Cl)c1ncc(C(=O)Nc2cc(C(F)(F)F)c(Cl)cn2)s1 + CCn1c(-c2cccnc2C(C)OC)c2c3cc(ccc31)N1CCOC(CC(NC(=O)C(C(C)C)N(C)C(=O)C3(F)CCN(C(=O)C#CC(C)(C)N(C)C)CC3)C(=O)N3CCCC(N3)C(=O)OCC(C)(C)C2)C1	88.9

Next up:
Please give the measured viability, T/C for this compound: CC(Nc1ccc2c(c1)OCCn1cc(N3C(=O)OCC3C(F)F)nc1-2)C(N)=O (stereo not given) + CCn1c(-c2cc(N3CCN(C)CC3)cnc2C(C)OC)c2c3cc(ccc31)-c1csc(n1)CC(NC(=O)C1CC1C)C(=O)N1CCCC(N1)C(=O)OCC(C)(C)C2
17.1
